Target protein (sequence): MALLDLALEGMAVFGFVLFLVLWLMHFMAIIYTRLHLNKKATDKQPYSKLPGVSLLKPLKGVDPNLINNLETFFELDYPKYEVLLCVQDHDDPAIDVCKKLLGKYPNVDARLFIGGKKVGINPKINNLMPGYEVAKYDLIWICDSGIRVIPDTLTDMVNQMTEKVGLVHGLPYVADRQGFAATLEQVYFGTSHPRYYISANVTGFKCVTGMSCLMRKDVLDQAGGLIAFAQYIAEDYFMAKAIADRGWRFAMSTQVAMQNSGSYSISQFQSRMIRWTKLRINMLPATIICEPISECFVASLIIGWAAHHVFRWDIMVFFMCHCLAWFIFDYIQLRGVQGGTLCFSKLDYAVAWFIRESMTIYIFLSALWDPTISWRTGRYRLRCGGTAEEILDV
VALUE_TYPE: pIC50
Please report pIC50 as the negative decimal logarithm of the molar concentration, giving only the number.

Recorded pIC50 for `COc1ccccc1-c1nccc2c1CN(c1ccc(F)cc1)C2=O` , please?
6.00

Would you kindly share the measured pIC50 for `O=C1c2ccnc(-c3ccc(F)cc3OC(F)(F)F)c2CN1c1ccc(F)cc1` ?
7.31

***
Can you share its pIC50? I mean this compound: `CC(C)(O)c1ccc(NC(=O)c2ccnn(-c3ccc(F)cc3OCC(F)(F)F)c2=O)cc1`
7.31

###

The following compounds are listed with their measured inhibition at 10 min, 10 µM values.
Target: CYP2C9 (Homo sapiens, UniProt P11712)
Sequence (P11712 whole entry): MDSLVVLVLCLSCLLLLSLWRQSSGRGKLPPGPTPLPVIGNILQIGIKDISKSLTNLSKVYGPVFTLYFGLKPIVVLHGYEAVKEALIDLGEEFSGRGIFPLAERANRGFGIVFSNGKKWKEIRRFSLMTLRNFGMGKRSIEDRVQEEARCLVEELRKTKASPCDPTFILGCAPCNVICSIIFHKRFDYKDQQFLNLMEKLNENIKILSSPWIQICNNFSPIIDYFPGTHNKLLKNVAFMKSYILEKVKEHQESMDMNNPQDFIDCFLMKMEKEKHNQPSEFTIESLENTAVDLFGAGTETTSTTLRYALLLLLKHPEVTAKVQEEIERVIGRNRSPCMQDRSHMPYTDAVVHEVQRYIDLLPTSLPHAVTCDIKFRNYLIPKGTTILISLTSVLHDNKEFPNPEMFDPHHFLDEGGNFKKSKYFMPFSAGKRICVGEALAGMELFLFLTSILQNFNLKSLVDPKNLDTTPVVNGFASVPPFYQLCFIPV
Assay: Inhibition of CYP2C9 in human liver microsomes using tolbutamide as substrate at 10 uM in presence of NADPH generating system incubated for 10 mins
Type: ADME
Conditions: probe tolbutamide
Only the number, expressed in %, is required.

Entry `CC(C)(O)c1ccc(NC(=O)c2ccnn(-c3ccccc3OCC(F)(F)F)c2=O)cc1` has what inhibition at 10 min, 10 µM?
24.9

Next item in the queue.
// returns reported inhibition at 10 min, 10 µM for input `CC(C)(O)c1ccc(N2Cc3c(ccnc3-c3ccc(F)cc3OCC(F)(F)F)C2=O)cc1`
37.9

###

Recorded inhibition at 30 µM, one value per entry.
Molecular target: UniProt:Q13936
Sequence (Q13936 whole entry): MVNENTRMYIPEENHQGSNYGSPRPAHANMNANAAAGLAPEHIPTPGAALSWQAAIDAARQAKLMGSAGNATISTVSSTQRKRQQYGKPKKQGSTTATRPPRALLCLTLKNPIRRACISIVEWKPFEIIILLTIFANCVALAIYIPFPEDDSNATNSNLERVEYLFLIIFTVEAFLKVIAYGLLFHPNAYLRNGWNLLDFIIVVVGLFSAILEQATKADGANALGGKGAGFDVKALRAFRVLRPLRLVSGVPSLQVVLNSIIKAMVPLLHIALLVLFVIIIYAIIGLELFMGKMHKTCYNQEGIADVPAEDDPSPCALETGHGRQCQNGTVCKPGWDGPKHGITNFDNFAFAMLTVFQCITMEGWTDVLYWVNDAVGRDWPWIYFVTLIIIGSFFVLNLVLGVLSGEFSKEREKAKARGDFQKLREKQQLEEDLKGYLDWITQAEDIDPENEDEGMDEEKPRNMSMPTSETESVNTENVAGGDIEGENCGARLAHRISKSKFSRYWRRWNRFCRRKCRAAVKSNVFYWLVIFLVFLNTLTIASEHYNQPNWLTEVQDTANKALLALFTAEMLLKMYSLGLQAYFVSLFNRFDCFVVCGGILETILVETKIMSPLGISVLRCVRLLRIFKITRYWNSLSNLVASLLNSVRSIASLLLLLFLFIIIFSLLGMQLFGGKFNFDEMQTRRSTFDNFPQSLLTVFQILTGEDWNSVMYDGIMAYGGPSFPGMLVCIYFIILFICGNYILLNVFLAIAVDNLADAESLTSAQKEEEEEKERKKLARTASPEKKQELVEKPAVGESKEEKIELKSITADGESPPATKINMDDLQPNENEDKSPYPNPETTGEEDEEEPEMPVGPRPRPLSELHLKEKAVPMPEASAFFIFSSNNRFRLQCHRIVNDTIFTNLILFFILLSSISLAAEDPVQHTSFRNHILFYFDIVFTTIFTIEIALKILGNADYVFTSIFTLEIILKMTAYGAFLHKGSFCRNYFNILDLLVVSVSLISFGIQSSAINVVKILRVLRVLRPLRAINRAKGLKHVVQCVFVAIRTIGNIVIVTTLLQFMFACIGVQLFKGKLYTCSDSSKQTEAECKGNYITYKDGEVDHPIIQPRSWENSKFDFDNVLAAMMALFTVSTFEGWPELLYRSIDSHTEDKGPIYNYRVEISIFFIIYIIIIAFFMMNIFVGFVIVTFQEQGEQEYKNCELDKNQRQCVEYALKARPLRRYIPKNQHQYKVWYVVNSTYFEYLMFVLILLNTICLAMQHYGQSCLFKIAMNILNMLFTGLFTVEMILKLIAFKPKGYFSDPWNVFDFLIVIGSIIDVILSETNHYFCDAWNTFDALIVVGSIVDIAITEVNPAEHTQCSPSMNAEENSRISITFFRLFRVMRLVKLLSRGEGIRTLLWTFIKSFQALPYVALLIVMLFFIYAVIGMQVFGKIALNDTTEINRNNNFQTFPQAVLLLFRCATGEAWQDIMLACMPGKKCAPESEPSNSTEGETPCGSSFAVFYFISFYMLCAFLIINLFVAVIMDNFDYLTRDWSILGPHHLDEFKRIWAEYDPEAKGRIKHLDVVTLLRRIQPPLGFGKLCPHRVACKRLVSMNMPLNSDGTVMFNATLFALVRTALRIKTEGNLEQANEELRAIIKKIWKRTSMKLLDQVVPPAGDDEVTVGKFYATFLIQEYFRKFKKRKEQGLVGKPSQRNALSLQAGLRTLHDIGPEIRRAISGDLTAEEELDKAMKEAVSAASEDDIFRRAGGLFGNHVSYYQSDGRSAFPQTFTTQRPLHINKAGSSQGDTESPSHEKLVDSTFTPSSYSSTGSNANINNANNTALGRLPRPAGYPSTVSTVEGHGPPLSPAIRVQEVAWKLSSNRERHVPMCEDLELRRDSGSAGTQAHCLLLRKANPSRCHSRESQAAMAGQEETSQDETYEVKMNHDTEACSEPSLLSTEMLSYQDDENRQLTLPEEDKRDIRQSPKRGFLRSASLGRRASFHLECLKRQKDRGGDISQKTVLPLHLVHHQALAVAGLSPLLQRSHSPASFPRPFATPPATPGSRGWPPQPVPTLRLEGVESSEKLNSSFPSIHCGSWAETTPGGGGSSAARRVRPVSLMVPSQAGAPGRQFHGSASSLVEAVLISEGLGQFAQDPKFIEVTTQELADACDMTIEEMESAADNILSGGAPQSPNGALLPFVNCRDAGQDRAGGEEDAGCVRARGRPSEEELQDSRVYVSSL
Test: Inhibition of human Cav1.2 expressed in HEK293 cells at 30 uM by automated electrophysiology QPatch HT assay
Assay type: toxicity, cell-based
Settings: HEK293 cells expressing Cav1.2
Write down the value, and be sure its unit follows.

I have this compound here, `CC(C)(O)c1ccc(N2Cc3c(ccnc3-c3ccc(F)cc3OCC(F)(F)F)C2=O)cc1` , and I need its recorded inhibition at 30 µM.
2.4%

Entry under review: `CC(C)(O)c1ccc(NC(=O)c2ccnn(-c3ccccc3OCC(F)(F)F)c2=O)cc1` . Reported inhibition at 30 µM?
7.3%

###

Assay: AUC in non-fasted ICR mouse at 5 mg/kg, po by LC-MS/MS analysis
Format: ADME, organism-based
Parameters: dose 5 mg/kg
Conditions: in vivo
The reader will find reported AUC values listed item by item below.
Please give a number only; it is taken to be in ng·h/mL.

What value of AUC has been reported for the following molecule? `CC(C)(O)c1ccc(NC(=O)c2ccnn(-c3ccccc3OCC(F)(F)F)c2=O)cc1`
829

Others:
Recorded AUC of `CC(C)(O)c1ccc(N2Cc3c(ccnc3-c3ccc(F)cc3OCC(F)(F)F)C2=O)cc1` , please.
10700
